system-name: MST1 (Homo sapiens (Human))
Sequence (Q13043 whole entry): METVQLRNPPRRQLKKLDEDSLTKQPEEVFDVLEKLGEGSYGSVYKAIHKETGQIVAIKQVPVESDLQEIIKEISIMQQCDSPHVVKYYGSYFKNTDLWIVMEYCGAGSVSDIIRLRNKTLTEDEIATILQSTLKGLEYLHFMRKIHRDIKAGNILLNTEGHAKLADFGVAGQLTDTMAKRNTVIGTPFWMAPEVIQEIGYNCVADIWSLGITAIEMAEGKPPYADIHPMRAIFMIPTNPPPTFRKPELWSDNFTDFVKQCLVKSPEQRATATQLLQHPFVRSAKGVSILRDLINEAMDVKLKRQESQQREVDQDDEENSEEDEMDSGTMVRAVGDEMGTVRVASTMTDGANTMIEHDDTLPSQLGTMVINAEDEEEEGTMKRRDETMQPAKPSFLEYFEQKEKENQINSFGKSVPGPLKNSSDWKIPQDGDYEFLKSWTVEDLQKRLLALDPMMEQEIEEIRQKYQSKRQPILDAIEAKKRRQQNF
measurement-description: In vitro enzyme activity test (ADP-GLO)
Format: biochemical
study-conditions: ATP 50 μM, 37° C. 1 hour, read-out: MST1 (IC50/μM)
reported-metric: IC50 (µM)
Return type: number; implicit unit µM.

// solved cases for IC50 follow
Qu. Any idea what IC50 was measured for CN1C(=O)C2(CC2)N(C)c2nc(Nc3ccc(S(N)(=O)=O)cc3)ncc21 ?
Ans. 0.103

Qu. // lookup IC50 for CCCC1C(=O)N(C)c2cnc(Nc3ccc(S(N)(=O)=O)cc3)nc2N1C (stereo not shown)
Ans. 0.206

Qu. Recorded IC50 of CN1C(=O)C(c2cccs2)N(C)c2nc(Nc3ccc(S(N)(=O)=O)cc3)ncc21 (stereo not shown) , please.
Ans. 0.0879

Turning now to a further compound:
Qu. Fill in: IC50 of CN1C(=O)C(c2ccccc2C(F)(F)F)N(C)c2nc(Nc3ccc(S(N)(=O)=O)cc3)ncc21 (stereo not shown) is ___
Ans. 0.0563
